# assay_target: T1, CD81 (UniProt P60033 1-236, limits assumed)
# T1 construct: whole, on cells; also called CD81 receptor
# T1 sequence (looked up): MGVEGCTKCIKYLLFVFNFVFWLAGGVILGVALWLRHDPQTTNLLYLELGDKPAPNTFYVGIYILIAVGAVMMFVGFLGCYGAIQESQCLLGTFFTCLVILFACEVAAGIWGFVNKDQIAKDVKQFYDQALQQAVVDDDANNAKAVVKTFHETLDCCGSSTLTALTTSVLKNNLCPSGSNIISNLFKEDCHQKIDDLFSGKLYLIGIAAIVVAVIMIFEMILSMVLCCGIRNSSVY
# assay_text: cell ELISA;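 also: antibody binding to HuH7 cells expressing CD81 versus a CD81-negative HuH7 control line, bound antibody detected by secondary reagent, absorbance at 450 nm with 620 nm reference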
Please enter Y where ELISA data is greater than or equal to 0.4, and N where it is lower.

Some entries whose results are on file:
{"columns": ["binder", "qualitative_label"],
 "data": [
  ["CD81K13 HC CD81K13 / LC 05-hVK_1_39 (antibody, V domains shown, human constant region) VH: EVRLHQSAAQLVQPGASVRLSCTTSGFNFKDSYLHWVKQRPAQGLEWIGRIDTGNGNVKFDPKFQDKATITTDIPSMTAYLHLSNLTSEDTAVYYCVPYGYGFHSWGDGTTLTVSS VL: DIQMTQSPSSLSASVGDRVTITCRASENIYRTLAWYQQKPGKAPKLLIYAATTLASGVPSRFSGSGSGTDFTLTISSLQPEDFATYYCQHFWGTPWTFGQGTKVEIK", "Y"],
  ["CD81K13 HC 07-hVH_1_3 / LC 06-hVK_1_39 (antibody, V domains shown, human constant region) VH: QVQLVQSGAEVKKPGASVKVSCKASGYTFKDSYLHWVRQAPGQGLEWMGRIDTGNGNVKFDPKFQGRVTITTDTSASTAYMELSSLRSEDTAVYYCAPYGYGFHSWGQGTLVTVSS VL: DIQMTQSPSSLSASVGDRVTITCRASENIYRTLAWYQQKPGKAPKLLIYAATTLASGVPSRFSGSGSGTDFTLTISSLQPEDFGTYYCQHFWGTPWTFGQGTKVEIK", "N"],
  ["CD81K13 HC 06-hVH_1_3 / LC 03-hVK_1_9 (antibody, V domains shown, human constant region) VH: QVQLVQSGAEVKKPGASVKVSCKASGYTFKDSYLHWVRQAPGQRLEWMGRIDTGNGNVKFDPKFQGRVTITTDTSASTAYMELSSLRSEDTAVYYCAPYGYGFHSWGQGTLVTVSS VL: DIQLTQSPSFLSASVGDRVTITCRASENIYRTLAWYQQKPGKAPKLLIYAATTLASGVPSRFSGSGSGTEFTLTISSLQPEDFATYYCQHFWGTPWTFGQGTKVEIK", "N"],
  ["CD81K13 HC 04-hVH_1_69 / LC 1b-hVK_3_15 (antibody, V domains shown, human constant region) VH: EVQLVESGGGLVQPGRSLRLSCTASGFNFKDSYLHWVRQAPGQGLEWMGRIDTGNGNVKFDPKFQGRVTITADESTSTAYMELSSLRSEDTAVYYCVPYGYGFHSWGQGTLVTVSS VL: EIVMTQSPATLSVSPGERATLSCRASENIYRTLAWYQQKPGQAPRLLIYGATTLADGIPARFSGSGSGTEFTLTISSLQSEDFAVYYCQHFWGTPWTFGQGTKVEIK", "N"]
]}

Here's the next entry for you.
Quick check: does CD81K13 HC 07-hVH_1_3 / LC 5b-hVK_1_39 (antibody, V domains shown, human constant region) VH: QVQLVQSGAEVKKPGASVKVSCKASGYTFKDSYLHWVRQAPGQGLEWMGRIDTGNGNVKFDPKFQGRVTITTDTSASTAYMELSSLRSEDTAVYYCAPYGYGFHSWGQGTLVTVSS VL: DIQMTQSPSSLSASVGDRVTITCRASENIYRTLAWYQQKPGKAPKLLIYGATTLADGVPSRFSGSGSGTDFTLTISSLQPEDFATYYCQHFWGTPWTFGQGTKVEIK have ELISA data greater than or equal to 0.4? Y
